The following are reported pIC50 results, target or system UniProtKB P22303.
Sequence (P22303 32-614, species assumed): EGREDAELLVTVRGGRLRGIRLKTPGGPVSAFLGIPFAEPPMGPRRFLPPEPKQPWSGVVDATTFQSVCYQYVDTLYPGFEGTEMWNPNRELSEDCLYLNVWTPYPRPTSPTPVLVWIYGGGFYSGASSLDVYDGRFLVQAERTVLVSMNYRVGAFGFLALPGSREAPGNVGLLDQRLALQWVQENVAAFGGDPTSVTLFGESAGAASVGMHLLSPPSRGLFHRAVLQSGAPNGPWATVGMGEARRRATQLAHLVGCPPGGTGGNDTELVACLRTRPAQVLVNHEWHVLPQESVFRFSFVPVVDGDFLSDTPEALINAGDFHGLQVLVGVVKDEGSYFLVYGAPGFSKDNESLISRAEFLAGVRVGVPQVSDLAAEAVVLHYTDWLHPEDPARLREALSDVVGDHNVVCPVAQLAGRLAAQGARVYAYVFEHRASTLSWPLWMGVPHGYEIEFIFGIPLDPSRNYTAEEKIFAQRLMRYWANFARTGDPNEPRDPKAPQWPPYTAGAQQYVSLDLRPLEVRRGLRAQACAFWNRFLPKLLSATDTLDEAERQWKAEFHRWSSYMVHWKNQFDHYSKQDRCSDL
pIC50: −log10 of the molar value.

# molecule, pIC50
data = [
    ("CCC/C=C/C=C/c1c(O)cc(CC=C(C)C)c(O)c1C=O [Compound 6, dihydroauroglaucin]", 4.73),
    ("C/C=C/C=C/CCc1c(O)cc(CC=C(C)C)c(O)c1C=O [Compound 4, isodihydroauroglaucin]", 3.31),
    ("CCCCC/C=C/c1c(O)cc(CC=C(C)C)c(O)c1C=O [Compound 5, tetrahydroauroglaucin]", 4.40),
    ("CCCCCCCc1c(O)cc(CC=C(C)C)c(O)c1C=O", 4.62),
]

----------
# assayName: Cytotoxicity against A549 cell line (MTT method)
# Assay type: cell-based
# reportedConditions: human, A549 cells, read-out: Cytotoxic Activities A549 (IC50)
measurementLabel: IC50 (µM)

# chemicalSmiles, measurementLabel, testResult
data = [
    ("CCCCCCCc1c(O)cc(CC=C(C)C)c(O)c1C=O", "IC50", 22.2),
]
